Catalogue of compounds with associated EC50
Molecular target: GST-AKAP18δ: PLB-biotin interaction (Rattus norvegicus (Rat))
Assay: AKAP18δ-PLB AlphaScreen assay
Format: binding
Conditions: average ± standard deviation (n = 3) or ± half range (n = 2); read-out: EC50 (n)

| RECORD_SMILES | TESTED_ON | EC50 (µM) |
| --- | --- | --- |
| Fc1ccc(CN(Cc2ccccc2)Cc2ccc(-c3ccccc3-c3nn[nH]n3)cc2)cc1 | GST-AKAP18δ: PLB-biotin interaction (Rattus norvegicus (Rat)) | 47.1 |
| CN(C)c1ccc(CN(Cc2ccccc2)CC(c2ccccc2)c2ccccc2)cc1 | GST-AKAP18δ: PLB-biotin interaction (Rattus norvegicus (Rat)) | 0.44 |
| CN(C)c1ccc(CN(Cc2ccccc2)Cc2ccc3c(c2)CCO3)cc1 | GST-AKAP18δ: PLB-biotin interaction (Rattus norvegicus (Rat)) | 2.45 |
| Oc1ccc(O)c(CN(Cc2ccncc2)Cc2ccc(F)cc2)c1 | GST-AKAP18δ: PLB-biotin interaction (Rattus norvegicus (Rat)) | 5.43 |

---

Target: GST-AKAP18δ: PLB-biotin interaction (Rattus norvegicus (Rat), UniProt Q6JP77)
Sequence (Q6JP77 whole entry): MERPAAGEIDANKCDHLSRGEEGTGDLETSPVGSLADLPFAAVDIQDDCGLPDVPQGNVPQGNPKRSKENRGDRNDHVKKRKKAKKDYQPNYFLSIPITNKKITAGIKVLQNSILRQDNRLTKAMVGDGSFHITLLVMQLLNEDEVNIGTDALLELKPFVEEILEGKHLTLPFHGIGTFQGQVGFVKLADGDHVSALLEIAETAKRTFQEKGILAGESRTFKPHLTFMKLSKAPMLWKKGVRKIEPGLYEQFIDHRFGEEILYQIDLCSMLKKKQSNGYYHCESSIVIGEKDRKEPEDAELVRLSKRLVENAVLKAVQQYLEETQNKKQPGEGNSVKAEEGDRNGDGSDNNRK
Assay: AKAP18δ-PLB AlphaScreen assay
Assay type: binding
Conditions: screening of compound library; read-out: EC50
EC50 vs 8 µM: less than gives satisfied; not less than gives not satisfied.

| RECORD_SMILES | CATEGORY_LABEL |
| --- | --- |
| O=C(O)c1csc(CN(Cc2ccc(F)cc2)Cc2ccc(OCc3ccccc3)cc2)n1 | not satisfied |
| O=C(O)c1csc(CN(Cc2ccc(F)cc2)Cc2ccc(Cl)cc2)n1 | not satisfied |
| Nc1ccc(CN(Cc2ccc(N)cc2)Cc2ccc(N)cc2)cc1 | not satisfied |
| Nc1ccc(CN(Cc2ccccc2)Cc2ccc(N)cc2)cc1 | satisfied |
| CC(C)(C)c1ccc(CN(CCC(c2ccccc2)c2ccccc2)Cc2nc(C(=O)O)cs2)cc1 | not satisfied |
| Cc1ccc(NC(=O)Nc2ccc(CN(Cc3ccc(NC(=O)Nc4ccccc4)cc3)Cc3ccc(NC(=O)Nc4ccc(C)cc4)cc3)cc2)cc1 | satisfied |
| O=[N+]([O-])c1ccc(CN(Cc2ccccc2)Cc2ccc([N+](=O)[O-])cc2)cc1 | satisfied |
| O=C(O)c1csc(CN(Cc2ccc(F)cc2)Cc2cccc(C(F)(F)F)c2)n1 | not satisfied |
| Cc1ccc(NC(=O)Nc2ccc(CN(Cc3ccccc3)Cc3ccc(NC(=O)Nc4ccc(C)cc4)cc3)cc2)cc1 | satisfied |
| O=C(O)c1csc(CN(CCC(c2ccccc2)c2ccccc2)Cc2ccccc2F)n1 | not satisfied |
| Cc1ccc(CN(Cc2ccc(F)cc2)Cc2nc(C(=O)O)cs2)cc1 | not satisfied |
| O=C(O)c1ccc(CN(Cc2ccccc2)Cc2ccc(C(=O)O)cc2)cc1 | not satisfied |
| Cc1ccc(CN(CCC(c2ccccc2)c2ccccc2)Cc2nc(C(=O)O)cs2)cc1 | not satisfied |
| Cc1ccc(CN(Cc2cccc(C(F)(F)F)c2)Cc2nc(C(=O)O)cs2)cc1 | not satisfied |
| O=C(O)c1csc(CN(Cc2ccc(F)cc2)Cc2cccc(Cl)c2)n1 | not satisfied |
| O=C(Nc1ccc(F)cc1)Nc1ccc(CN(Cc2ccccc2)Cc2ccc(NC(=O)Nc3ccc(F)cc3)cc2)cc1 | not satisfied |
| CCN(CC)c1ccc(CN(Cc2ccccc2)Cc2ccc(N(CC)CC)cc2)cc1 | satisfied |
| COc1ccc(CN(Cc2ccc(F)cc2)Cc2nc(C(=O)O)cs2)cc1 | not satisfied |
| O=C(Nc1ccccc1)Nc1ccc(CN(Cc2ccccc2)Cc2ccc(NC(=O)Nc3ccccc3)cc2)cc1 | satisfied |

---

System: metabolically active cells
Experiment: Cell viability luminescence assay
Assay type: cell-based
Catalogue of compounds with associated Viability (100 μM) 24 hours

| COMPOUND | TESTED_ON | Viability (100 μM) 24 hours |
| --- | --- | --- |
| CC(C)(C)c1ccc(CN(Cc2ccncc2)Cc2ccc(F)cc2)cc1 [Example 3a] | metabolically active cells | 0.79 |
| COC(=O)c1ccc(CN(Cc2ccccc2)Cc2ccc(F)cc2)cc1 [Example 3e] | metabolically active cells | 0.57 |
| Fc1ccc(CN(Cc2ccccc2)Cc2ccc(-c3ccccc3-c3nn[nH]n3)cc2)cc1 [Example 3g] | metabolically active cells | 0.80 |
| Oc1ccc(O)c(CN(Cc2ccncc2)Cc2ccc(F)cc2)c1 [Example 3b] | metabolically active cells | 0.03 |
| COC(=O)c1ccc(CN(Cc2ccccc2)Cc2ccc(C(=O)OC)cc2)cc1 [Example 2f] | metabolically active cells | 0.92 |
| Fc1ccc(CN(Cc2ccncc2)Cc2ccc(F)cc2)cc1 [Example 2a] | metabolically active cells | 0.85 |
